experimental.system: scFv-2 (120_15439_2), de novo designed single-chain antibody
protocol: BLI
measured.endpoint: Kd (nM)
Answers are plain numbers, in nM.

May I ask what Kd has been recorded for DVFYPYPYASGS [dodecapeptide antigen … (as used in biolayer interferometry)] ?
21.5

The origin of these recorded values is paper PMC5726764.
